Reference for the values: a melting point compilation (Tetko et al.; mined from patent text by program, amines drawn as free bases though some values may be those of a salt)

test_readout: melting point

[
  {
    "molecule": "Cn1cc(C(N)=O)c(=O)c2ccc(C(F)(F)F)cc21",
    "test_readout": "melting point",
    "reading": "288 to 292 °C"
  },
  {
    "molecule": "CC(C)c1nccc2c(CO)cccc12",
    "test_readout": "melting point",
    "reading": "120 to 121 °C"
  },
  {
    "molecule": "CC(C)N(CCC1(c2ccccc2Cl)CC(=O)NC1=O)C(C)C (stereo unspecified)",
    "test_readout": "melting point",
    "reading": "116 to 119 °C"
  },
  {
    "molecule": "CCN(CC)CCN1C(=O)Nc2ccc([N+](=O)[O-])cc2C1c1ccccc1 (stereo unspecified)",
    "test_readout": "melting point",
    "reading": "161 to 163 °C"
  },
  {
    "molecule": "Cc1cc(O)c2ccccc2c1OCc1ccccc1",
    "test_readout": "melting point",
    "reading": "159 to 161 °C"
  },
  {
    "molecule": "O=C(CP(=O)(O)CCCCc1ccccc1)OCc1ccccc1",
    "test_readout": "melting point",
    "reading": "64 to 67 °C"
  },
  {
    "molecule": "Cc1ccc(-c2ccnc3c(C(N)=O)ncn23)cc1",
    "test_readout": "melting point",
    "reading": "263 to 266 °C"
  },
  {
    "molecule": "CC(C)NC(=S)Nc1cccc(NC(=O)Nc2ccc(Cl)cc2)c1",
    "test_readout": "melting point",
    "reading": "197 to 198 °C"
  },
  {
    "molecule": "O=Cc1cc(Cl)c(F)cc1O",
    "test_readout": "melting point",
    "reading": "103 to 104 °C"
  },
  {
    "molecule": "CCOC(=S)Nc1cccc(-c2ccnc3c(C(=O)c4cccs4)cnn23)c1",
    "test_readout": "melting point",
    "reading": "209 to 211 °C"
  },
  {
    "molecule": "FC(F)(F)c1ccc(-c2nocc2CCl)cc1",
    "test_readout": "melting point",
    "reading": "84 to 85 °C"
  },
  {
    "molecule": "C=C(C)c1ccc(C(C)(c2ccc(C(=C)C)cc2)c2ccc(C(=C)C)cc2)cc1",
    "test_readout": "melting point",
    "reading": "28 °C"
  },
  {
    "molecule": "CCc1ccc2c(c1)C=Cc1cc(C)ccc1C2c1cn(-c2ccc(SCC(=O)O)nn2)c(=O)[nH]c1=O (stereo unspecified)",
    "test_readout": "melting point",
    "reading": "225 to 230 °C"
  },
  {
    "molecule": "CCc1nn(CC(N)=O)c(CC)c1Oc1cc(Cl)cc(Cl)c1",
    "test_readout": "melting point",
    "reading": "164 to 166 °C"
  },
  {
    "molecule": "COc1c(Br)cc(Br)cc1CC#N",
    "test_readout": "melting point",
    "reading": "87 to 88 °C"
  },
  {
    "molecule": "Fc1cccc(F)c1Cn1c(-c2c(F)cccc2F)nc2ccccc21",
    "test_readout": "melting point",
    "reading": "145 °C"
  },
  {
    "molecule": "CCCN(CCC)S(=O)(=O)c1cc(-c2csc(=Nc3cc(Cl)c(OC)cc3OC)n2C)ccc1Cl",
    "test_readout": "melting point",
    "reading": "173 to 175 °C"
  },
  {
    "molecule": "CC1(C)Oc2cccc(S(N)(=O)=O)c2O1",
    "test_readout": "melting point",
    "reading": "100 to 112 °C"
  },
  {
    "molecule": "CC(CC#N)n1nnc2cc3c(=O)n(C(C)Cn4ncnn4)nnc3cc2c1=O (stereo unspecified)",
    "test_readout": "melting point",
    "reading": "105 to 108 °C"
  },
  {
    "molecule": "CCCc1cc2c(c3c1[nH]c1ccc(OC)cc13)C(=O)N(CCN(C)C)C2=O",
    "test_readout": "melting point",
    "reading": "207 to 208 °C"
  },
  {
    "molecule": "CCOC(=O)COc1ccc(C23CC4CC(CC(C4)C2)C3)cc1",
    "test_readout": "melting point",
    "reading": "89 to 90 °C"
  }
]
